- Tested on: Aspergillus niger
- assay-procedure: Six-well plate screening test
- Type: cell-based
- condition-context: single moldicide or ACQ-C alone; incubation period 14 days
// values below are reported MIC
Give a bare numeral; the unit mg/kg is implied.

Below, 2 compounds whose answers are already recorded.
compound | measure-unit | value-measured
Cc1cc(C2CC2)nc(Nc2ccccc2)n1 | mg/kg | 100
CC(C)(C)C(O)(CCc1ccc(Cl)cc1)Cn1cncn1 (racemic) | mg/kg | 10

Req: Item CCCC1COC(Cn2cncn2)(c2ccc(Cl)cc2Cl)O1 (stereo not shown) has what recorded MIC?
Resp: 25

----------
- System: Alternaria alternata
- assay-procedure: Six-well plate screening test
- Assay type: cell-based
- condition-context: single moldicide or ACQ-C alone; incubation period 14 days
property-name: MIC (mg/kg)
Answer in mg/kg, number only, no unit symbol.

compound | property-name | measure-unit | value-measured
Cc1cc(C2CC2)nc(Nc2ccccc2)n1 | MIC | mg/kg | 12.5
CC(C)(C)C(O)(CCc1ccc(Cl)cc1)Cn1cncn1 (racemic) | MIC | mg/kg | 100

Req: Which value of MIC has been reported for N#CSCSc1nc2ccccc2s1 in the records?
Resp: 300

Req: Okay, and CCCC1COC(Cn2cncn2)(c2ccc(Cl)cc2Cl)O1 (centres unmarked) ?
Resp: 100

----------
- Tested on: Trichoderma virens
- assay-procedure: Six-well plate screening test
- Format: cell-based
- condition-context: single moldicide or ACQ-C alone; incubation period 14 days
MIC listing for selected compounds.
State the answer as a number, implicitly in mg/kg.

Known results for compounds:
compound | MIC / mg/kg
N#CSCSc1nc2ccccc2s1 | 3
Cc1cc(C2CC2)nc(Nc2ccccc2)n1 | 100

--- query ---
Req: Test system Trichoderma virens; read-out MIC; what value for CCCC1COC(Cn2cncn2)(c2ccc(Cl)cc2Cl)O1 (centres unmarked) ?
Resp: 6.2
